- Test system: HOP-92
- run parameters: read-out: Median Lethal Concentration (LC50); Non-Small Cell Lung Cancer, HOP-92; 48 hours, SRB assay
endpoint: CC50 (µM)
Kindly provide the numeric value in µM only, without the unit symbol.

Item: O=C1C(=Cc2ccccc2O)COCC1=Cc1ccccc1O Test system: HOP-92 Read-out: CC50 Value: ?
35.4

----------
- Test system: NCI-H460
- run parameters: read-out: Median Lethal Concentration (LC50); Non-Small Cell Lung Cancer, NCI-H460; 48 hours, SRB assay
endpoint: CC50

Which CC50 value belongs to O=C1C(=Cc2ccccc2O)COCC1=Cc1ccccc1O ?
38.9 µM

----------
- Test system: SNB-19
- method description: cells
- run parameters: Homo sapiens, SNB-19, 48 h, read-out: Median Growth Inhibitory Concentration (GI50)
Documented GI50 across a set of compounds
Enter your answer as a number in µM; do not include the unit.

Examples with their reported GI50 follow.
> print(dat)
                                   compound  assay.system  quantity.unit  endpoint.result
1  O=C1C(=Cc2ccccc2O)CCCC1=Cc1ccccc1O [EF4]        SNB-19             µM              3.2
2  COc1cc(/C=C/C(=O)CC(=O)/C=C/c2ccc(O)c(OC)c2)ccc1O [Curcumin]        SNB-19             µM              7.9
3  OC(CCc1ccc(F)cc1F)CCc1ccc(F)cc1F [EF19, 1,5-Bis(2,4-difluorophenyl)-pentan-3-ol]        SNB-19             µM             16.1
4  O=C(C=Cc1ccc(F)cc1F)C=Cc1ccc(F)cc1F [EF9]        SNB-19             µM             14.7

Return reported GI50; argument: CC(=O)O.O=C1C(=Cc2ccccc2F)CNCC1=Cc1ccccc1F [EF24]
0.7

Looking for the measured GI50 of CC1(/C=C/c2ccccc2O)C=Cc2ccccc2O1 (stereo not drawn) [EF7] , can you help?
17.5
